FYI, the data here is from the RNAGym collection of RNA variant scans (doi:10.1126/science.aae0568).

Please provide measured yeast fitness for the entries that follow.
B1: tRNA (parent)
chain: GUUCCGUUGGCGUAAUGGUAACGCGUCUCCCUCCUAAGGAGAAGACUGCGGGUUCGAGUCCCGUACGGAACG

variants of: B1; experiment: yeast fitness relative to wild type (ratio to wild type); higher = fitter; tRNA-Arg(CCU), competitive growth, 37 C, YPD
Variants at the floor of the assay were thinned out.

Given item C4G G9C G41A , the value recorded as its yeast fitness is ≤ 0.5

Given item C11U A21G A37U G41A , the value recorded as its yeast fitness is ≤ 0.5

Given item G9A C22G A45G , the value recorded as its yeast fitness is 0.588

Given item G17C C62G , the value recorded as its yeast fitness is 0.57

Given item G17C A43C G51A , the value recorded as its yeast fitness is ≤ 0.5

Given item C11U A15U A21C C24G C29U A42C U59G G67U , the value recorded as its yeast fitness is ≤ 0.5

Given item U19A G56A , the value recorded as its yeast fitness is 1

Given item U8C A14U , the value recorded as its yeast fitness is 0.805

Given item G6A C11U A43U C62G C66A A69C , the value recorded as its yeast fitness is ≤ 0.5

Given item U2A C5G A15G , the value recorded as its yeast fitness is 0.575

Given item C5G C46G A65G , the value recorded as its yeast fitness is 0.594

Given item C27A C61G C66U A69U , the value recorded as its yeast fitness is ≤ 0.5

Given item U54C C66U A69U , the value recorded as its yeast fitness is 0.62

Given item C24G C27A U32C U64A , the value recorded as its yeast fitness is ≤ 0.5

Given item U16C C34G C55U , the value recorded as its yeast fitness is ≤ 0.5

Given item C33G A37G C49U C60U , the value recorded as its yeast fitness is 0.551

Given item U7C C62U , the value recorded as its yeast fitness is 0.802

Given item C30U A36G G44A C66U , the value recorded as its yeast fitness is ≤ 0.5

Given item U26A A40U A65C , the value recorded as its yeast fitness is 0.662

Given item G18A U54C , the value recorded as its yeast fitness is 0.646

Given item A15C G44A U53C U64C , the value recorded as its yeast fitness is ≤ 0.5

Given item G9C G23A , the value recorded as its yeast fitness is 0.544
